Study System: V600E mutant B-raf (Homo sapiens, UniProt P15056, V600E)
Construct: A375 cells, a human melanoma cell line having the V600E mutant B-raf is used in this assay; endogenous in cells; host or cells: A375 human melanoma cells
Sequence (P15056 whole entry V600E): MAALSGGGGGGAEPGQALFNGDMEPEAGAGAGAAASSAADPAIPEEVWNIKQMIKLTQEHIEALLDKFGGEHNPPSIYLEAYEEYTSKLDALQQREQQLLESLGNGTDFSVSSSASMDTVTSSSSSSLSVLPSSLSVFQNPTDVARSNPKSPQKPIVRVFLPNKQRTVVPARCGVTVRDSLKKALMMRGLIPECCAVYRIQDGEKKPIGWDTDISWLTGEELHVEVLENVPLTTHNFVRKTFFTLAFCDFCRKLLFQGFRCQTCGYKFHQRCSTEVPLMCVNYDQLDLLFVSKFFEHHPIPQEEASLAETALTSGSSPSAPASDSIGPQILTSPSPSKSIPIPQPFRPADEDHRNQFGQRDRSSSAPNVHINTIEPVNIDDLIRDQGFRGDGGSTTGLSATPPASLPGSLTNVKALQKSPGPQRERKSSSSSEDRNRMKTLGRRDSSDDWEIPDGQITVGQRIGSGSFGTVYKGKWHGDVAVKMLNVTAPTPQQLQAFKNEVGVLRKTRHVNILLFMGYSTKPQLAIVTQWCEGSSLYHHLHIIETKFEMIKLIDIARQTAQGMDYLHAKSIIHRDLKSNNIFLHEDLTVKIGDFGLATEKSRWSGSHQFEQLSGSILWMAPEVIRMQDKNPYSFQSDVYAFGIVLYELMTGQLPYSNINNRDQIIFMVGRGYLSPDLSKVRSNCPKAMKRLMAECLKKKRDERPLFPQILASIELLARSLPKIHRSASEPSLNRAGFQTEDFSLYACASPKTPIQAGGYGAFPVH
Assay Overview: B-raf cell-based assay (ratio of phospho-ERK1/2 to total ERK1/2 in A375 cells)
Condition Info: Table I; A375 human melanoma cells, P-ERK/total ERK
Listed next: entries and their corresponding pIC50.
Bear in mind: pIC50 is minus log10 of a mol/L concentration; give just that figure.

Example molecules with recorded pIC50:
> print(dat)
                                   molecule  metric.name  reading
1  Cc1ccc2c(Nc3ccc4c(c3)OC(F)(F)O4)nccc2c1Nc1ncccc1-c1ncnc2cc[nH]c12 [Example 64]        pIC50     6.95
2  Cc1ccc2c(Nc3ccc4c(c3)C(F)(F)OC(F)(F)O4)nccc2c1Nc1ncccc1-c1ncnc2[nH]ccc12 [Example 54]        pIC50     7.00
3  Cc1ccc2c(Nc3ccc4ncsc4c3)nccc2c1Nc1ncccc1-c1ncnc2[nH]ccc12 [Example 49]        pIC50     8.00

Next up:
Inquiry: State its pIC50 on V600E mutant B-raf (Homo sapiens, UniProt P15056, V600E): Cc1ccc2c(Nc3cccc(C(F)(F)F)c3)nccc2c1Nc1ncccc1-c1ncnc2[nH]cnc12 [Example 58]
Reply text: 8.22

----------
Study System: recombinant HuBraf V600E (Homo sapiens, UniProt P15056, V600E)
Sequence (P15056 whole entry V600E): as above
Assay Overview: B-raf Homogenous Time Resolved Fluorescent (HTRF) kinase assay
Assay type: biochemical
Condition Info: Table I; human mutant B-raf V600E, substrate MEK1, 10 uM ATP; read-out: HTRF Enzyme assay Data IC50
Metric Name: log10 of IC50 (log10 of the value in nM)
In our notation, the value equals log10 of IC50 in nM.

Inquiry: Item Cc1ccc2c(Nc3ccc4ncsc4c3)nccc2c1Nc1ncccc1-c1ncnc2[nH]ccc12 has what recorded log10 of IC50?
Reply text: 0.85

Inquiry: Item Cc1ccc2c(Nc3ccc(C#N)cc3)ncnc2c1Nc1ncccc1-c1ncnc2[nH]cnc12 has what recorded log10 of IC50?
Reply text: 0.30

Inquiry: Item Cc1ccc2c(Nc3ccc(Cl)cc3)nccc2c1Nc1ncccc1-c1ncnc2[nH]ncc12 has what recorded log10 of IC50?
Reply text: 0.70

Inquiry: Item Cc1ccc2c(Nc3ccc(C#N)cc3)nccc2c1Nc1ncccc1-c1ncnc2[nH]ccc12 has what recorded log10 of IC50?
Reply text: 0.48

Inquiry: Item Cc1ccc2c(Nc3ccc(Cl)cc3)nccc2c1Oc1ncccc1-c1ncnc2[nH]cnc12 has what recorded log10 of IC50?
Reply text: 1.41

Inquiry: Item C#Cc1cccc(Nc2nccc3c(Nc4ncccc4-c4ncnc5[nH]ccc45)c(C)ccc23)c1 has what recorded log10 of IC50?
Reply text: 0.48

----------
Study System: V600E mutant B-raf (Homo sapiens, UniProt P15056, V600E)
Construct: A375 cells, a human melanoma cell line having the V600E mutant B-raf is used in this assay; endogenous in cells; host or cells: A375 human melanoma cells
Assay Overview: B-raf cell-based assay (ratio of phospho-ERK1/2 to total ERK1/2 in A375 cells)
Condition Info: Table II; A375 human melanoma cells, P-ERK/total ERK
Listed next: entries and their corresponding IC50.

Example molecules with recorded IC50:
> print(dat)
                                   molecule  metric.name   reading
1  C#Cc1cccc(Nc2ncnc3c(Nc4ncccc4-c4ncnc5[nH]cnc45)c(C)ccc23)c1 [Example 75]         IC50  0.028 µM
2  Cc1ccc2c(Nc3ccc4c(c3)OC(F)(F)O4)ncnc2c1Nc1ncccc1-c1ncnc2[nH]cnc12 [Example 74]         IC50  0.004 µM
3  Cc1ccc2c(Nc3ccc4c(c3)OC(F)(F)O4)nccc2c1Nc1ncccc1-c1ncnc2[nH]ncc12 [Example 72]         IC50  0.018 µM
4  Cc1ccc2c(Nc3ccc(OC(F)F)cc3)ncnc2c1Nc1ncccc1-c1ncnc2[nH]cnc12 [Example 76]         IC50  0.005 µM
5  Cc1ccc2c(Nc3ccc(C#N)cc3)nccc2c1Nc1ncccc1-c1ncnc2[nH]ncc12 [Example 71]         IC50  0.012 µM

Next up:
Inquiry: State its IC50 on V600E mutant B-raf (Homo sapiens, UniProt P15056, V600E): Cc1ccc2c(Nc3cccc(C(F)(F)F)c3)ncnc2c1Nc1ncccc1-c1ncnc2[nH]cnc12 [Example 73]
Reply text: 0.033 µM

----------
Listed next: entries and their corresponding pIC50.
Study System: recombinant HuBraf V600E (Homo sapiens, UniProt P15056, V600E)
Assay Overview: B-raf Homogenous Time Resolved Fluorescent (HTRF) kinase assay
Assay type: biochemical
Condition Info: Table I; human mutant B-raf V600E, substrate MEK1, 10 uM ATP; read-out: HTRF Enzyme assay Data IC50
Bear in mind: pIC50 is minus log10 of a mol/L concentration; give just that figure.

Example compounds with recorded pIC50:
> print(dat)
                                 cpd.smiles                              study.system  metric.name  reading
1  COc1ccc(Nc2nccc3c(Nc4ncccc4-c4ncnc5[nH]ncc45)c(C)ccc23)cc1C(F)(F)F  recombinant HuBraf V600E (Homo sapiens, UniProt P15056, V600E)        pIC50     7.60
2  Cc1ccc2c(Nc3ccc4c(c3)NC(=O)C4)nccc2c1Nc1ncccc1-c1ncnc2[nH]ccc12  recombinant HuBraf V600E (Homo sapiens, UniProt P15056, V600E)        pIC50     7.92
3  Cc1ccc2c(Nc3ccc4c(c3)OC(F)(F)O4)nccc2c1Nc1ncccc1-c1ncnc2[nH]ccc12  recombinant HuBraf V600E (Homo sapiens, UniProt P15056, V600E)        pIC50     7.89
4  Cc1ccc2c(Nc3cccc(C(F)(F)F)c3)nccc2c1Nc1ncccc1-c1ncnc2[nH]ncc12  recombinant HuBraf V600E (Homo sapiens, UniProt P15056, V600E)        pIC50     8.10
5  Cc1ccc2c(Nc3ccc4snc(C)c4c3)nccc2c1Nc1ncccc1-c1ncnc2[nH]ccc12  recombinant HuBraf V600E (Homo sapiens, UniProt P15056, V600E)        pIC50     7.96

Next up:
Inquiry: Item Cc1ccc2c(Nc3ccc4c(c3)C(F)(F)OC(F)(F)O4)nccc2c1Nc1ncccc1-c1ncnc2[nH]ccc12 has what recorded pIC50?
Reply text: 6.69
